TEST SUMMARY: Plasma protein binding in human at 1 uM incubated for 6.5 hrs by LC-MS/MS analysis
Format: ADME, cell-free
RUN PARAMETERS: read-out: PPB (converted)
compounds and their reported fraction unbound at 6.5 h, 1 µM
A bare number is all that is needed in reply.

Previously resolved entries follow.
                        structure_as_smiles  recorded_result
0  CCn1c(CO)nn(-c2cc3c([C@@H](C)C(F)(F)F)cn(-c4ccccc4C)c(=O)c3cc2F)c1=O              0.1
1  CCn1c(CO)nn(-c2cc3c(C(C)C)cn(-c4c(F)cccc4Cl)c(=O)c3cc2F)c1=O            0.042
2  CCn1c(CO)nn(-c2cc3c(C(C)C)cn(-c4ccccc4C)c(=O)c3cc2F)c1=O            0.099
3  CCn1c(CO)nn(-c2cc3c(C(C)C)cn(-c4c(C)cnc(OC)c4Cl)c(=O)c3cc2F)c1=O            0.059

Recorded result, CCn1c(CO)nn(-c2cc3c(C(C)C)cn(-c4ccccc4C(F)(F)F)c(=O)c3cc2F)c1=O , fraction unbound at 6.5 h, 1 µM: 0.063

// data source = ChEMBL document CHEMBL5584243
